Target: TDP-43s (RRM1-RRM2) (mouse, UniProt Q921F2 101-265)
Assay: filter binding
Observable: pKd
pKd field: float, defined as -log10 of concentration (mol/L).

Problem: For the binder shown here, UGUGUGUGUGUG (ssRNA) [(UG)6] , give the reported pKd.
Result: 7.85
